SYSTEM UNDER TEST: TRH-DE purified from porcine brain (Sus scrofa, UniProt A0A287AP33)
Construct: TRH-DE purified from porcine brain; from tissue; host or cells: porcine brain
Sequence (A0A287AP33 1-1066): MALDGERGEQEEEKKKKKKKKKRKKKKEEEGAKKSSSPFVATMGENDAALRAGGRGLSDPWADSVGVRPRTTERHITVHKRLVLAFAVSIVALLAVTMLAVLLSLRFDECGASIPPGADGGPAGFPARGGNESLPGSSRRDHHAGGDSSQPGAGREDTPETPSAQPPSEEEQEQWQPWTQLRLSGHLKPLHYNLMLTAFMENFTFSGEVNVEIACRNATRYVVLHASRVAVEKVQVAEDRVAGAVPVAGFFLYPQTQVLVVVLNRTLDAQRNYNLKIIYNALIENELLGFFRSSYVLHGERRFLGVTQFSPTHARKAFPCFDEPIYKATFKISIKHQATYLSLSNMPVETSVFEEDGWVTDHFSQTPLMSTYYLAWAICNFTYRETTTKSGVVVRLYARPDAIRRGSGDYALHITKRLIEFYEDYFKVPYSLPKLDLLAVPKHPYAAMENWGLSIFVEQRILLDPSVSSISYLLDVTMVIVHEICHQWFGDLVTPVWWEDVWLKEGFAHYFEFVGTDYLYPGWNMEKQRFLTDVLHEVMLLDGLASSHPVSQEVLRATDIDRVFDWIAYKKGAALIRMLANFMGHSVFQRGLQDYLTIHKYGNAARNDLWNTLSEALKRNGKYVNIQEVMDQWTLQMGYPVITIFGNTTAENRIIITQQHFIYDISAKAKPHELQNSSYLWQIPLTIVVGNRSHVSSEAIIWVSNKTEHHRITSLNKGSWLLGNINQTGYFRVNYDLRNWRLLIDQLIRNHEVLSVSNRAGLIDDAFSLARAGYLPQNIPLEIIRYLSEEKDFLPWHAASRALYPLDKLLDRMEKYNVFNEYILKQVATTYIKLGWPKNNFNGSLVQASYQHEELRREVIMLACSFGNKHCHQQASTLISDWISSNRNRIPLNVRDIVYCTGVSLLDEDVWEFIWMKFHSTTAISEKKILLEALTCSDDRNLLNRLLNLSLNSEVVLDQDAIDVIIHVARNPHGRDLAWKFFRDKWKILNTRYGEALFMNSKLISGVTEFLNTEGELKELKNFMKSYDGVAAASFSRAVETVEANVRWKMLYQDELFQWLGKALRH
PROTOCOL SUMMARY: Inhibition of purified TRH-DE (kinetic/fluorometric assays)
Type: biochemical
PROTOCOL CONDITIONS: read-out: Ki values for TRH-DE inhibitors
Square brackets hold non-standard residues; d marks the D form. Peptide text beside a SMILES is read from it. * marks the point of attachment. AMC = Cc1cc(=O)oc2cc(N*)ccc12; pGlu = O=C1CC[C@@H](C(=O)O)N1
// reported pKi per item
In simple prose, pKi is minus the logarithm base ten of a concentration in moles per litre.

Examples with their reported pKi follow.
MOLECULE: Cc1cc(=O)oc2cc(NC(=O)[C@@H](Cc3c[nH]c4ccccc34)NC(=O)[C@@H](Cc3c[nH]c4ccccc34)NC(=O)[C@@H](Cc3ccc(O)cc3)NC(=O)[C@@H]3CCCN3C(=O)[C@H](CC(N)=O)NC(=O)[C@@H]3CCC(=O)N3)ccc12 [JAK 1D, Glp-Asn-Pro-DTyr-DTrp-DTrpAMC] ([pGlu]NP[dY][dW][dW]-{AMC})
EXPERIMENTAL VALUE: 7.52
//
MOLECULE: NC(=O)C[C@H](NC(=O)[C@@H]1CCC(=O)N1)C(=O)N1CCC[C@H]1C(N)=O [JAK 6, Glp-Asn-ProNH2] ([pGlu]-Asn-Pro-NH2)
EXPERIMENTAL VALUE: 4.79
//
MOLECULE: Cc1cc(=O)oc2cc(NC(=O)[C@@H](Cc3c[nH]c4ccccc34)NC(=O)[C@@H](Cc3ccc(O)cc3)NC(=O)[C@@H]3CCCN3C(=O)[C@H](CC(N)=O)NC(=O)[C@@H]3CCC(=O)N3)ccc12 [JAK 2D, Glp-Asn-Pro-DTyr-DTrpAMC] ([pGlu]NP[dY][dW]-{AMC})
EXPERIMENTAL VALUE: 7.00
//
MOLECULE: Cc1cc(=O)oc2cc(NC(=O)[C@H](Cc3c[nH]c4ccccc34)NC(=O)[C@H](Cc3c[nH]c4ccccc34)NC(=O)[C@H](Cc3ccc(O)cc3)NC(=O)[C@@H]3CCCN3C(=O)[C@H](CC(N)=O)NC(=O)[C@@H]3CCC(=O)N3)ccc12 [JAK 1, Glp-Asn-Pro-LTyr-LTrp-LTrp-AMC] ([pGlu]NPYWW-{AMC})
EXPERIMENTAL VALUE: 9.00
//
MOLECULE: NC(=O)[C@@H](Cc1c[nH]c2ccccc12)NC(=O)[C@@H](Cc1ccc(O)cc1)NC(=O)[C@@H]1CCCN1C(=O)[C@H](Cc1c[nH]cn1)NC(=O)[C@@H]1CCC(=O)N1 [JAK 7D, Glp-His-Pro-D-Tyr-D-TrpNH2] ([pGlu]HP[dY][dW]-NH2)
EXPERIMENTAL VALUE: 4.71

INPUT: What does the data say about its pKi? Entry: NC(=O)C[C@H](NC(=O)[C@@H]1CCC(=O)N1)C(=O)N1CCC[C@H]1C(=O)N[C@@H](Cc1ccc(O)cc1)C(=O)N[C@@H](Cc1c[nH]c2ccccc12)C(=O)N[C@@H](Cc1c[nH]c2ccccc12)C(N)=O [JAK 3, Glp-Asn-Pro-LTyr-LTrp-LTrpNH2] ([pGlu]NPYWW-NH2)
OUTPUT: 6.14

INPUT: Looking for the measured pKi of NC(=O)C[C@H](NC(=O)[C@@H]1CCC(=O)N1)C(=O)N1CCC[C@H]1C(=O)N[C@H](Cc1ccc(O)cc1)C(=O)N[C@H](Cc1c[nH]c2ccccc12)C(N)=O [JAK 4D, Glp-Asn-Pro-D-Tyr-D-TrpNH2] ([pGlu]NP[dY][dW]-NH2) , can you help?
OUTPUT: 6.96

INPUT: // lookup pKi for Cc1cc(=O)oc2cc(NC(=O)[C@@H]3CCCN3C(=O)[C@H](CC(N)=O)NC(=O)[C@@H]3CCC(=O)N3)ccc12 [JAK 5, Glp-Asn-Pro-AMC] ([pGlu]-Asn-Pro-{AMC})
OUTPUT: 6.01

The measurements presented in this section are drawn from patent US7713935B2.
